System: HRV-A2
METHOD SUMMARY: microbe, parasite or virus in culture
Assay type: cell-based, human rhinovirus
CONDITIONS: Human rhinovirus sp., HRV2 / HRVA2, HeLa R19, read-out: Table in Figure 7A, HRV2, exp1-exp3
REPORTED ENDPOINT: EC50 (nM)
Entry rule: numbers only, all in nM.

Measured on HRV-A2, O=C(c1cc[nH]c1)N(Cc1ccc(F)cc1)c1ccccc1 [Compound 12b] has a documented EC50 of 2760

###

System: CV-A24
METHOD SUMMARY: microbe, parasite or virus in culture
Type: cell-based, coxsackievirus A24
CONDITIONS: Enterovirus C, CVA24, HeLa R19, read-out: EC50 Average
REPORTED ENDPOINT: EC50 (µM)
Your answer should be a plain number; it is taken to be in µM.

The compound COc1ccc(N(Cc2ccc(F)cc2)C(=O)c2cc[nH]c2)cc1 [Compound 12a] showed EC50 equal to 3.46
